The measured values listed here are drawn from patent US6376175B1.

# Lookup of reported hGH fold induction relative to solvent control keyed by entry
# Test system: human growth hormone promoter
# Type: cell-based
# Particulars: Table 2 A) transcriptional activators; 532 cells, 6 hours, high-throughput screen
# Source text: A rat pituitary cell line, designated GC, (4, 25) was used for transfection of plasmids containing the human growth hormone promoter (see below) and was maintained in DMEM and Ham's F12 medium (1:1), supplemented with 12.5% FCS. For HTP screening, transfected GC clones were transferred to serum free defined medium consisting of DMEM and Ham's F12 medium (1:1) supplemented with growth factors, hormones and nutrients as described previously (17, 5). […]
Measurement label: hGH fold induction relative to solvent control (fold)

# Compound, Numeric value
data = [
    ("Cc1cc(-c2ccc(S(=O)(=O)[O-])cc2)c2ccc3c(-c4ccc(S(=O)(=O)[O-])cc4)cc(C)nc3c2n1.O.[Na+].[Na+] [Chemical 189]", 1.47),
    ("CC(=O)[O-].Nc1ccc2nc3c(cc(N)c4ccccc43)[o+]c2c1 [Chemical 1776]", 0.15),
    ("Nc1nc(=O)n(C2CC(O)C(CO)O2)cc1Br (centres unmarked) [Chemical 542]", 1.08),
    ("CC(CCl)CBr (single isomer, unassigned) [Chemical 2096]", 0.61),
    ("CC1(C)OC2CC3C4CCC5=CC(=O)C=CC5(C)C4(F)C(O)CC3(C)C2(C(=O)CO)O1 (centres unmarked) [Chemical 848]", 1.28),
    ("Nc1ccc2nc3ccc(N)cc3[s+]c2c1 [Chemical 836]", 0.23),
    ("O=c1[nH]c(=O)n(C2CC(O)C(CO)O2)cc1Br (centres unmarked) [Chemical 543]", 0.72),
    ("CC1(C(=O)OCC(F)(F)C(F)(F)C(F)(F)C(F)(F)C(F)(F)C(F)F)CCC(C(=O)OCC(F)(F)C(F)(F)C(F)(F)C(F)(F)C(F)(F)C(F)F)C1(C)C (centres unmarked) [Chemical 1592]", 0.74),
]

###

Reported values of MMTV fold induction relative to solvent control for individual entries
# Tested on: mouse mammary tumor virus (MMTV) promoter
# Assay type: cell-based
# Particulars: Table 2 A) transcriptional activators; M10 cells, 6 hours, high-throughput screen
Measurement label: MMTV fold induction relative to solvent control (fold)

# Molecule, Tgt, Numeric value
records = [
    ("CC1(C(=O)OCC(F)(F)C(F)(F)C(F)(F)C(F)(F)C(F)(F)C(F)F)CCC(C(=O)OCC(F)(F)C(F)(F)C(F)(F)C(F)(F)C(F)(F)C(F)F)C1(C)C (centres unmarked)", "mouse mammary tumor virus (MMTV) promoter", 1.34),
    ("Nc1nc(=O)n(C2CC(O)C(CO)O2)cc1Br (centres unmarked)", "mouse mammary tumor virus (MMTV) promoter", 1.26),
    ("CC(=O)[O-].Nc1ccc2nc3c(cc(N)c4ccccc43)[o+]c2c1", "mouse mammary tumor virus (MMTV) promoter", 1.36),
    ("Nc1ccc2nc3ccc(N)cc3[s+]c2c1", "mouse mammary tumor virus (MMTV) promoter", 0.58),
    ("CC(CCl)CBr (single isomer, unassigned)", "mouse mammary tumor virus (MMTV) promoter", 0.89),
    ("O=c1[nH]c(=O)n(C2CC(O)C(CO)O2)cc1Br (centres unmarked)", "mouse mammary tumor virus (MMTV) promoter", 0.98),
    ("Cc1cc(-c2ccc(S(=O)(=O)[O-])cc2)c2ccc3c(-c4ccc(S(=O)(=O)[O-])cc4)cc(C)nc3c2n1.O.[Na+].[Na+]", "mouse mammary tumor virus (MMTV) promoter", 2.80),
    ("CC1(C)OC2CC3C4CCC5=CC(=O)C=CC5(C)C4(F)C(O)CC3(C)C2(C(=O)CO)O1 (centres unmarked)", "mouse mammary tumor virus (MMTV) promoter", 2.43),
]

###

# Test system: human G-CSF promoter
# Assay type: cell-based
# Particulars: Table 2 A) transcriptional activators; G21 cells, 6 hours, high-throughput screen
Measurement label: GCSF fold induction relative to solvent control

# Compound, Result
rows = [
    ("CC(CCl)CBr (single isomer, unassigned) [Chemical 2096]", "3.27 fold"),
    ("CC1(C)OC2CC3C4CCC5=CC(=O)C=CC5(C)C4(F)C(O)CC3(C)C2(C(=O)CO)O1 (centres unmarked) [Chemical 848]", "0.75 fold"),
    ("Nc1ccc2nc3ccc(N)cc3[s+]c2c1 [Chemical 836]", "3.20 fold"),
    ("O=c1[nH]c(=O)n(C2CC(O)C(CO)O2)cc1Br (centres unmarked) [Chemical 543]", "7.17 fold"),
    ("Cc1cc(-c2ccc(S(=O)(=O)[O-])cc2)c2ccc3c(-c4ccc(S(=O)(=O)[O-])cc4)cc(C)nc3c2n1.O.[Na+].[Na+] [Chemical 189]", "1.06 fold"),
    ("Nc1nc(=O)n(C2CC(O)C(CO)O2)cc1Br (centres unmarked) [Chemical 542]", "6.28 fold"),
    ("CC(=O)[O-].Nc1ccc2nc3c(cc(N)c4ccccc43)[o+]c2c1 [Chemical 1776]", "3.50 fold"),
    ("CC1(C(=O)OCC(F)(F)C(F)(F)C(F)(F)C(F)(F)C(F)(F)C(F)F)CCC(C(=O)OCC(F)(F)C(F)(F)C(F)(F)C(F)(F)C(F)(F)C(F)F)C1(C)C (centres unmarked) [Chemical 1592]", "3.20 fold"),
]
